- Test system: A549-CANX-COX4
- assay_text: lowest phenotypically active concentration; higher = less potent
- protocol_conditions: treatment time: 24 h
# lowest phenotypically active concentration listing for each entry below
measurement_label: lowest phenotypically active concentration

compound	subject_of_test	result_value
O=C(Nc1cccnc1)N1CCC(Cc2cccc(Oc3ccc(C(F)(F)F)cn3)c2)CC1	A549-CANX-COX4	9 µM
Cc1c2oc3c(C)ccc(C(=O)NC4C(=O)NC(C(C)C)C(=O)N5CCCC5C(=O)N(C)CC(=O)N(C)C(C(C)C)C(=O)OC4C)c3nc-2c(C(=O)NC2C(=O)NC(C(C)C)C(=O)N3CCCC3C(=O)N(C)CC(=O)N(C)C(C(C)C)C(=O)OC2C)c(N)c1=O (stereo unspecified)	A549-CANX-COX4	≤ 0.3 µM
COc1ccc(N2C(=O)CSC2c2cccc(Br)c2)c(OC)c1 (stereo unspecified)	A549-CANX-COX4	9 µM
O=C(CCCc1ccc(-c2ccccc2F)cc1)Nc1ccc(O)cc1	A549-CANX-COX4	1 µM
Cc1ccc([N+](=O)[O-])cc1S(=O)(=O)N(C)/N=C/c1cnc2ccc(Br)cn12	A549-CANX-COX4	≤ 0.3 µM
Nc1ccc(-c2cccc3c(=O)cc(N4CCOCC4)oc23)cc1	A549-CANX-COX4	9 µM

Values from the supplement of paper PMC7411054
